- measured-on: PEPT2 (Homo sapiens, UniProt Q16348)
- Construct: expressed in transfected cells; host or cells: transgenic yeast cells
- Sequence (Q16348 whole entry, species assumed): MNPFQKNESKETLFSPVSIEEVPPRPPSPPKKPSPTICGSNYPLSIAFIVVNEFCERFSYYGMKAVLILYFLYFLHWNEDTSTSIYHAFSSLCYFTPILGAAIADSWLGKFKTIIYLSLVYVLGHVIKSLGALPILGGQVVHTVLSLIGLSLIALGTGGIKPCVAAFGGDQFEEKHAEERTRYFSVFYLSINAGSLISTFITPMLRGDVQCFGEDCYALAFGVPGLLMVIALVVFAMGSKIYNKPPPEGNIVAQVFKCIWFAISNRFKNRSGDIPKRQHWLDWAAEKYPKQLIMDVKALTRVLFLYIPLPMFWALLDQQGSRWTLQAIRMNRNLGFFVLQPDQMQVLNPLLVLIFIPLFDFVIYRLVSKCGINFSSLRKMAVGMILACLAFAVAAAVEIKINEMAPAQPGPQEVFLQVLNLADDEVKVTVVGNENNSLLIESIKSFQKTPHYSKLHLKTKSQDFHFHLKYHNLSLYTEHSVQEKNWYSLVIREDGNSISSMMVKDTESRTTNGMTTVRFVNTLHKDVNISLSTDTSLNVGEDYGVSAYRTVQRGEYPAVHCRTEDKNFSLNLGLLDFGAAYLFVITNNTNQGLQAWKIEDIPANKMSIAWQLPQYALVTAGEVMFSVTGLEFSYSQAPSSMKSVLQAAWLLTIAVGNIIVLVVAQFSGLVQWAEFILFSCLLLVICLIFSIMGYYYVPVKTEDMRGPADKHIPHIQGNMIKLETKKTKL
- protocol-text: Competition assay with transgenic yeast cells, displacement of radiolabeled tracer dipeptide, PEPT2
- Type: binding, mammalian
- measurement-parameters: displacement of radiolabeled tracer dipeptide, transgenic yeast cells; read-out: PEPT2 EC50
Square brackets hold non-standard residues; d marks the D form. Peptide text beside a SMILES is read from it. pS = N[C@@H](COP(=O)(O)O)C(=O)O; Cha = N[C@@H](CC1CCCCC1)C(=O)O; Tle = CC(C)(C)[C@H](N)C(=O)O
assay-readout: EC50 (µM)
A number alone suffices; assume µM.

Here is how some compounds turned out for EC50.
CC[C@@H](C)[C@@H](NC(=O)[C@@H]1CCCN1C(=O)[C@@H](N)C(C)(C)C)C(=O)O [t-butyl-Gly-Pro-D-Ile] (H-[Tle]-Pro-[dI]-OH; N-terminus and C-terminus assumed); 2300
CC[C@H](C)[C@H](NC(=O)[C@@H]1CCCN1C(=O)[C@@H](N)CC1CCCCC1)C(=O)O [Cha-Pro-Ile] (H-[Cha]-Pro-Ile-OH; N-terminus and C-terminus assumed); 124
CC(C)[C@@H](NC(=O)[C@@H]1CCCN1C(=O)[C@@H](N)C(C)(C)C)C(=O)O [t-butyl-Gly-Pro-D-Val] (H-[Tle]-Pro-[dV]-OH; N-terminus and C-terminus assumed); 1500

Here is the next item to consider.
Query CC[C@H](C)[C@H](NC(=O)[C@@H]1CCCN1C(=O)[C@@H](N)COP(=O)(O)O)C(=O)O [Ser(P)-Pro-Ile] (H-[pS]-Pro-Ile-OH; N-terminus and C-terminus assumed) yields EC50 of 4900

Ref: patent US20030135023A1
